Entry source: patent US20250320215A1

# MEASUREMENT PROTOCOL: Estimated solubility by solvent addition method via visual assessment
# Assay type: physicochemical
# EXPERIMENTAL CONDITIONS: organic solvent or mixture, thermodynamic from solid; EtOH, 70° C.; read-out: Solubility, Concentration
VALUE TYPE: solubility

Incoming: // solubility lookup, key: Cc1n[nH]c2nc(-c3ccc(NS(=O)(=O)c4cc(F)ccc4F)c(F)c3)nc(NCCN(C)C)c12.Cl [Compound 3 Form B]
Outgoing: < 1500 µg/mL

###

# MEASUREMENT PROTOCOL: Solubility estimates by aliquot addition method in various solvents
# Assay type: physicochemical
# EXPERIMENTAL CONDITIONS: THF, 50 °C, organic solvent or mixture, thermodynamic from solid; read-out: Solubility at 50° C.
VALUE TYPE: solubility

Incoming: // solubility lookup, key: `Cc1n[nH]c2nc(-c3ccc(NS(=O)(=O)c4cc(F)ccc4F)c(F)c3)nc(NCCN(C)C)c12`
Outgoing: > 1000 µg/mL

###

# MEASUREMENT PROTOCOL: Estimated solubility by solvent addition method via visual assessment
# Format: physicochemical
# EXPERIMENTAL CONDITIONS: organic solvent or mixture, thermodynamic from solid; Benzyl alcohol, 70° C.; read-out: Solubility, Concentration
VALUE TYPE: solubility

Incoming: // solubility lookup, key: Cc1n[nH]c2nc(-c3ccc(NS(=O)(=O)c4cc(F)ccc4F)c(F)c3)nc(NCCN(C)C)c12.Cl [Compound 3 Form B]
Outgoing: < 1500 µg/mL

###

# MEASUREMENT PROTOCOL: Estimated solubility by solvent addition method via visual assessment
# Type: physicochemical
# EXPERIMENTAL CONDITIONS: thermodynamic from solid; Water, room temperature; read-out: Solubility
VALUE TYPE: solubility

Incoming: // solubility lookup, key: Cc1n[nH]c2nc(-c3ccc(NS(=O)(=O)c4cc(F)ccc4F)c(F)c3)nc(NCCN(C)C)c12 [Compound 4 Form B]
Outgoing: 75 to 150 mg/mL

###

# MEASUREMENT PROTOCOL: Estimated solubility by solvent addition method via visual assessment
# Assay type: physicochemical
# EXPERIMENTAL CONDITIONS: organic solvent or mixture, thermodynamic from solid; EtOH, room temperature; read-out: Solubility
# Procedure: Solubility of Compound 3 Form B was estimated in 30 solvents at room temperature and in 9 organic solvents at 70° C. using solvent addition method via visual assessment. Protocol: about 3 mg of Compound 3 Form B was weighed into a sample vial and the solvent was added gradually with vortex until the drug solution was clear by observation or a total of 2 mL solvent was added. Then, the estimated solubility (mg/mL) was calculated. […]
VALUE TYPE: solubility

Incoming: // solubility lookup, key: Cc1n[nH]c2nc(-c3ccc(NS(=O)(=O)c4cc(F)ccc4F)c(F)c3)nc(NCCN(C)C)c12 [Compound 4 Form B]
Outgoing: 3750 to 7500 µg/mL

###

# MEASUREMENT PROTOCOL: Estimated solubility by solvent addition method via visual assessment
# Format: physicochemical
# EXPERIMENTAL CONDITIONS: organic solvent or mixture, thermodynamic from solid; Acetone, room temperature; read-out: Solubility
VALUE TYPE: solubility

Incoming: // solubility lookup, key: Cc1n[nH]c2nc(-c3ccc(NS(=O)(=O)c4cc(F)ccc4F)c(F)c3)nc(NCCN(C)C)c12 [Compound 4 Form B]
Outgoing: < 1500 µg/mL

###

# MEASUREMENT PROTOCOL: Estimated solubility by solvent addition method via visual assessment
# Format: physicochemical
# EXPERIMENTAL CONDITIONS: organic solvent or mixture, thermodynamic from solid; Me-cyclohexane, RT; read-out: Solubility, Concentration
# Procedure: Solubility of Compound 3 Form B was estimated in 30 solvents at room temperature and in 9 organic solvents at 70° C. using solvent addition method via visual assessment. Protocol: about 3 mg of Compound 3 Form B was weighed into a sample vial and the solvent was added gradually with vortex until the drug solution was clear by observation or a total of 2 mL solvent was added. Then, the estimated solubility (mg/mL) was calculated. […]
VALUE TYPE: solubility

Incoming: // solubility lookup, key: Cc1n[nH]c2nc(-c3ccc(NS(=O)(=O)c4cc(F)ccc4F)c(F)c3)nc(NCCN(C)C)c12.Cl [Compound 3 Form B]
Outgoing: < 1500 µg/mL

###

# MEASUREMENT PROTOCOL: Estimated solubility by solvent addition method via visual assessment
# Assay type: physicochemical
# EXPERIMENTAL CONDITIONS: organic solvent or mixture, thermodynamic from solid; Acetone, RT; read-out: Solubility, Concentration
VALUE TYPE: solubility

Incoming: // solubility lookup, key: Cc1n[nH]c2nc(-c3ccc(NS(=O)(=O)c4cc(F)ccc4F)c(F)c3)nc(NCCN(C)C)c12.Cl [Compound 3 Form B]
Outgoing: < 1500 µg/mL

###

# MEASUREMENT PROTOCOL: Estimated solubility by solvent addition method via visual assessment
# Format: physicochemical
# EXPERIMENTAL CONDITIONS: organic solvent or mixture, thermodynamic from solid; NMP, RT; read-out: Solubility, Concentration
VALUE TYPE: solubility

Incoming: // solubility lookup, key: Cc1n[nH]c2nc(-c3ccc(NS(=O)(=O)c4cc(F)ccc4F)c(F)c3)nc(NCCN(C)C)c12.Cl [Compound 3 Form B]
Outgoing: 3000 to 3800 µg/mL

###

# MEASUREMENT PROTOCOL: Solubility of the salts in water / MTBE
# Format: physicochemical
# EXPERIMENTAL CONDITIONS: water, thermodynamic from solid
VALUE TYPE: solubility at 1 day

Incoming: // solubility at 1 day lookup, key: Cc1n[nH]c2nc(-c3ccc(NS(=O)(=O)c4cc(F)ccc4F)c(F)c3)nc(NCCN(C)C)c12.Cl [Compound 3 Form A]
Outgoing: < 1000 µg/mL

###

# MEASUREMENT PROTOCOL: Estimated solubility by solvent addition method via visual assessment
# Format: physicochemical
# EXPERIMENTAL CONDITIONS: organic solvent or mixture, thermodynamic from solid; MTBE, RT; read-out: Solubility, Concentration
# Protocol: Solubility of Compound 3 Form B was estimated in 30 solvents at room temperature and in 9 organic solvents at 70° C. using solvent addition method via visual assessment. Protocol: about 3 mg of Compound 3 Form B was weighed into a sample vial and the solvent was added gradually with vortex until the drug solution was clear by observation or a total of 2 mL solvent was added. Then, the estimated solubility (mg/mL) was calculated. […]
VALUE TYPE: solubility

Incoming: // solubility lookup, key: Cc1n[nH]c2nc(-c3ccc(NS(=O)(=O)c4cc(F)ccc4F)c(F)c3)nc(NCCN(C)C)c12.Cl [Compound 3 Form B]
Outgoing: < 1500 µg/mL

###

# MEASUREMENT PROTOCOL: Solubility estimates by aliquot addition method in various solvents
# Assay type: physicochemical
# EXPERIMENTAL CONDITIONS: DCM, organic solvent or mixture, thermodynamic from solid; read-out: Solubility at RT
VALUE TYPE: solubility

Incoming: // solubility lookup, key: `Cc1n[nH]c2nc(-c3ccc(NS(=O)(=O)c4cc(F)ccc4F)c(F)c3)nc(NCCN(C)C)c12`
Outgoing: < 1000 µg/mL

###

# MEASUREMENT PROTOCOL: Solubility estimates by aliquot addition method in various solvents
# Assay type: physicochemical
# EXPERIMENTAL CONDITIONS: DCM, 50 °C, organic solvent or mixture, thermodynamic from solid; read-out: Solubility at 50° C.
VALUE TYPE: solubility

Incoming: // solubility lookup, key: Cc1n[nH]c2nc(-c3ccc(NS(=O)(=O)c4cc(F)ccc4F)c(F)c3)nc(NCCN(C)C)c12 [Compound 1]
Outgoing: < 1000 µg/mL

###

# MEASUREMENT PROTOCOL: Estimated solubility by solvent addition method via visual assessment
# Assay type: physicochemical
# EXPERIMENTAL CONDITIONS: organic solvent or mixture, thermodynamic from solid; NMP, room temperature; read-out: Solubility
# Protocol: Solubility of Compound 3 Form B was estimated in 30 solvents at room temperature and in 9 organic solvents at 70° C. using solvent addition method via visual assessment. Protocol: about 3 mg of Compound 3 Form B was weighed into a sample vial and the solvent was added gradually with vortex until the drug solution was clear by observation or a total of 2 mL solvent was added. Then, the estimated solubility (mg/mL) was calculated. […]
VALUE TYPE: solubility

Incoming: // solubility lookup, key: Cc1n[nH]c2nc(-c3ccc(NS(=O)(=O)c4cc(F)ccc4F)c(F)c3)nc(NCCN(C)C)c12 [Compound 4 Form B]
Outgoing: > 150 mg/mL

###

# MEASUREMENT PROTOCOL: Estimated solubility by solvent addition method via visual assessment
# Assay type: physicochemical
# EXPERIMENTAL CONDITIONS: organic solvent or mixture, thermodynamic from solid; MTBE, room temperature; read-out: Solubility
VALUE TYPE: solubility

Incoming: // solubility lookup, key: Cc1n[nH]c2nc(-c3ccc(NS(=O)(=O)c4cc(F)ccc4F)c(F)c3)nc(NCCN(C)C)c12 [Compound 4 Form B]
Outgoing: < 1500 µg/mL
